# ASSAY: Protein binding in plasma (unknown origin)
# Type: ADME, cell-free
# CONDITION_DESCRIPTION: read-out: PPB (converted)
OUTCOME_MEASURE: fraction unbound
Answer field: number only, no words.

Q) Provide fraction unbound value for the following molecule: C[C@@H]1OC(=O)NN=C1c1ccc(-c2ccc(F)cc2)c(C(F)(F)F)c1
A) 0.002

---

# ASSAY: Metabolic stability in dog hepatocytes assessed as bioavailability at 1 uM measured upto 90 mins by LC-MS/MS analysis
# Assay type: ADME, Canis lupus familiaris, Hepatocyte
Recorded Fh at 1.5 h, 1 µM, one value per entry.
# value in %; strip the unit string

Below are worked cases with known answers.
Q) Name the recorded Fh at 1.5 h, 1 µM of the compound listed here: O=C1NN=C(c2ccc(-c3ccc(F)cc3)c(C(F)(F)F)c2)CO1
A) 44

Q) Output measured Fh at 1.5 h, 1 µM for this item: C[C@@H]1OC(=O)NN=C1c1ccc(-c2ccc(Cl)cn2)c(C(F)(F)F)c1
A) 24

Q) For C[C@@H]1OC(=O)NN=C1c1ccc(-c2cnn(C(F)F)c2)c(C(F)(F)F)c1 , write its Fh at 1.5 h, 1 µM.
A) 69

Q) Item O=C1NN=C(c2ccc(-c3ccc(F)cc3)c(OC(F)(F)F)c2)CO1 : provide Fh at 1.5 h, 1 µM
A) 68

Q) Entry Cc1cc(C2=NNC(=O)OC2)ccc1-c1ccc(F)cc1 needs its Fh at 1.5 h, 1 µM filled in; supply it.
A) 48

Others:
Q) Let me know recorded Fh at 1.5 h, 1 µM for C[C@@H]1OC(=O)NN=C1c1ccc(-c2ccc(F)cc2)c(C(F)(F)F)c1 , thanks.
A) 70

Q) Report measured Fh at 1.5 h, 1 µM; entry is O=C1NN=C(c2ccc(N3CCC(F)(F)CC3)c(C(F)(F)F)c2)CO1
A) 28

Q) Kindly indicate its recorded Fh at 1.5 h, 1 µM. Item: C[C@@H]1OC(=O)NN=C1c1ccc(-c2ccnc(N)c2)c(C(F)(F)F)c1
A) 56

Q) Give Fh at 1.5 h, 1 µM for the following compound: O=C1NN=C(c2ccc(N3CCOCC3)c(F)c2)CO1
A) 100

Q) Read the entry C[C@@H]1OC(=O)NN=C1c1ccc(-n2cc(C(F)(F)F)cn2)c(C(F)(F)F)c1 and write its reported Fh at 1.5 h, 1 µM.
A) 87

Reference for the values: ChEMBL document CHEMBL6071190
